assay: label from the status in PepcDB records
Assay endpoint: protein production

[[record]]
biopolymer_sequence = "MKKQYWWIIVTYILMQLSGVVGLPLLLKTGLYDNRGFTIEEKGQIITGHWAIISFFIALCIVLWLLRTDIRDRHLDPMRSSVPATIGWIFIGFFLAIISQSIAGMIEMYVFGVPRGSENTDRLLDIARTIPWFLIVVSIIGPILEEIVFRKILFGTLYKKFNFFIAAIISSLVFATIHFDFTHLLVYTAMGLVFAFLYVKTKRIIVPIAAHVAMNTLVAIGQIFMSNEQIQEMIKEAEKMQGFIGGFFV"
value_observed = "failed"

[[record]]
biopolymer_sequence = "MPSQLGITLKQVRLQQHLSQATVATGICAQSMLSAIENGKYTPNATLLMRLCQRLKISLDQLSLAENFTISDLEQINDRLAKLCNHHRYADLREFLLTDAVQARLTTDVQLAAYYYYLGITDFQLGHLTDAQQQFQLALASAPAQHRTTLSRLCWMSLALIHASRQQANASEEAMTQAVTQLKTAPYEANLNSLFYLAAVSHLKLNQLTIAAQWLERGIDFATDHDSHYMLANDYHLLAVIASRSEQIDQQRTAQATEHVLTTLFHESIYDRLD"
value_observed = "failed"


====

assay: label from the status in PepcDB records
Assay endpoint: protein production

[[record]]
biopolymer_sequence = "MYLAEALAQRVEAQRRYSELNQLLLDVAKVQEGDQPAENPHEILTELEELTTRINDLVRRINRTNSVTEFSEGMTLADALSVRDALLKKRTLYSDLADQLTSRQDRYSRSEIKYVATMDAREIRKKADLAAKEYRQLDVDIQRLNWQTELQ"
assay_endpoint = "protein production"
value_observed = "failed"

[[record]]
biopolymer_sequence = "MGHHHHHHENLYFQSHERLSEKKIKNLLTSKQQRQQYEIKQRSMLRHLAELRRHSRFRRLCTKPASSSMPASTSSVDRRTTRRSTSQTSLSPSNSSGYGSVFGCEEHDVDKIPSLNGFAKLKRRRSSCVGAPTPNSKRSKNNMGVIAKRPPKGEYVVERIECVEMD"
assay_endpoint = "protein production"
value_observed = "failed"

[[record]]
biopolymer_sequence = "MQIPIYSKLKTKLESKGIDNISSGQIAWFVCSLILALVTYIILTFHYIYISYGKYDKNLFLLIFDRNAIELFVIVYSCIMFNLLYIYNAIPLVLSAVFIFLAFYFSSLSLFIVGCCGIGVFFLISIFKRKFMFSVLLFALGYTCTLFFFYGLATY"
assay_endpoint = "protein production"
value_observed = "failed"


====

assay: label from the status in PepcDB records
Assay endpoint: protein production

[[record]]
biopolymer_sequence = "MERIAMNPLMQQAIQFANDHETAWDRSVRGNFGVHLDDPPPWNRLLGPVHDRGPVSGVVVVDGQTLASWGEPERADLTFSVAKLYLSILAGVAHDRGLLPDVDEPVGRRVPGIGFDAGRNARITWRHLLQQTSEWEGERFGVPDQADRYRAVAFGIPPDGRKGDARPLQEPGTYWEYNDVRINQLSYALLHLFRRPLPEVFREAVTRPLGASEDWQWVGYDNAWVDIDGVRMPSVPGGTHWGGGMSISARDQALIGRMLLDEGRAADGRQVLSPAWIQAMRTPCDIAPYYGYLIWLNHERKVFPSVPASSFFGIGAGSSFTWVEPERRMVVIVRWLDAAYADALFGRILAAVDAHRAGLEHHHHHH"
value_observed = "failed"

[[record]]
biopolymer_sequence = "MVLSVVVVGKPRCRSIAVAARERLHRYGEYPMSSNNASGKVVSVDEQAFENAGEQAADEDGFPVVDETPEFEAAVEQETQAKVDANHPDGIADTSEDRIHGVTLEQEERIRAREAELERISAQAELGTQDGREQRTRDIAAKRSAVRRAEFQTRAASVDPMADPERDDPRAELTQEQLAAVNKQSMRLAEKLDGWSRAAIGRRLGEAVVGGKDVTSAVVGVFEELQTAPGTVIPIGKLEDVNRKEVSIEGTVTRLWKPSSAAISQVGLIEDESGKTKFTSWVASEQPWIEEGEHVRIHGAAKNWYNGRVSVALTGWSTVHFPERGRWWEALEHHHHHH"
value_observed = "failed"


// data source = a protein production outcome set (Wang et al. 2014)
